Where these numbers come from: PubChem BioAssay

- MEASUREMENT DESCRIPTION: yeast growth modulation, basal conditions, primary screen, YJM789 clinical isolate, OD600, 24 h (AID 1089);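 also: growth of clinical yeast isolate S. cerevisiae YJM 789 seeded 1000 cells per well; test concentration not given here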
- EXPERIMENTAL CONTEXT: S. cerevisiae YJM789 growth, higher = more signal, called active from +8 up or from −8 down
PROPERTY MEASURED: z-score
Provide a numeric answer; units are not to be included.

Here is how some compounds turned out for z-score.
# COMPOUND, ENDPOINT VALUE
rows = [
    ("CC(C)CNC(=O)[C@@H]1c2ccccc2C(=O)N(C2Cc3ccccc3C2)[C@H]1c1ccc(CO)cc1", -0.226),
    ("C=CCNC(=O)[C@@H]1[C@H]2C(=O)O[C@H](c3ccccc3)[C@H](c3ccccc3)N2[C@H](c2ccccc2OCCO)[C@@]12C(=O)N(C(=O)OCCOC)c1ccc(C#CCCO)cc12", 0.656),
    ("C=C(COC)C(=O)CC[C@@H](OC(=O)c1cccnc1)c1cccc(OCCO)c1", -0.686),
    ("CC[C@H](C)C(=O)O[C@H]1CC[C@]2(C)C3=C(CCC2C1(C)C)[C@]1(C)CC[C@H]([C@H](C)CCCC(C)C)[C@@]1(C)CC3 (some centres not stated)", 0.737),
    ("CC(C)=CCN(C(=O)C#Cc1ccccc1)[C@H](CO)c1ccccc1", -0.577),
]

So for CN1C(=O)C2C=CC(C(O)c3ccc(-c4ccccc4)s3)N(Nc3ccccc3)C2C1=O (configuration not stated) , the logged z-score turned out to be -1.29

So for C=CCNC(=O)[C@H]1[C@@H]2C(=O)O[C@@H](c3ccccc3)[C@@H](c3ccccc3)N2[C@@H](c2ccccc2OCCO)[C@]12C(=O)N(C(=O)OCCOC)c1ccccc12 , the logged z-score turned out to be 1.5

====

- TARGET OR SYSTEM: Neurogenic locus notch homolog protein 2 (Homo sapiens) (UniProt Q04721)
- Sequence (Q04721 whole entry, looked up): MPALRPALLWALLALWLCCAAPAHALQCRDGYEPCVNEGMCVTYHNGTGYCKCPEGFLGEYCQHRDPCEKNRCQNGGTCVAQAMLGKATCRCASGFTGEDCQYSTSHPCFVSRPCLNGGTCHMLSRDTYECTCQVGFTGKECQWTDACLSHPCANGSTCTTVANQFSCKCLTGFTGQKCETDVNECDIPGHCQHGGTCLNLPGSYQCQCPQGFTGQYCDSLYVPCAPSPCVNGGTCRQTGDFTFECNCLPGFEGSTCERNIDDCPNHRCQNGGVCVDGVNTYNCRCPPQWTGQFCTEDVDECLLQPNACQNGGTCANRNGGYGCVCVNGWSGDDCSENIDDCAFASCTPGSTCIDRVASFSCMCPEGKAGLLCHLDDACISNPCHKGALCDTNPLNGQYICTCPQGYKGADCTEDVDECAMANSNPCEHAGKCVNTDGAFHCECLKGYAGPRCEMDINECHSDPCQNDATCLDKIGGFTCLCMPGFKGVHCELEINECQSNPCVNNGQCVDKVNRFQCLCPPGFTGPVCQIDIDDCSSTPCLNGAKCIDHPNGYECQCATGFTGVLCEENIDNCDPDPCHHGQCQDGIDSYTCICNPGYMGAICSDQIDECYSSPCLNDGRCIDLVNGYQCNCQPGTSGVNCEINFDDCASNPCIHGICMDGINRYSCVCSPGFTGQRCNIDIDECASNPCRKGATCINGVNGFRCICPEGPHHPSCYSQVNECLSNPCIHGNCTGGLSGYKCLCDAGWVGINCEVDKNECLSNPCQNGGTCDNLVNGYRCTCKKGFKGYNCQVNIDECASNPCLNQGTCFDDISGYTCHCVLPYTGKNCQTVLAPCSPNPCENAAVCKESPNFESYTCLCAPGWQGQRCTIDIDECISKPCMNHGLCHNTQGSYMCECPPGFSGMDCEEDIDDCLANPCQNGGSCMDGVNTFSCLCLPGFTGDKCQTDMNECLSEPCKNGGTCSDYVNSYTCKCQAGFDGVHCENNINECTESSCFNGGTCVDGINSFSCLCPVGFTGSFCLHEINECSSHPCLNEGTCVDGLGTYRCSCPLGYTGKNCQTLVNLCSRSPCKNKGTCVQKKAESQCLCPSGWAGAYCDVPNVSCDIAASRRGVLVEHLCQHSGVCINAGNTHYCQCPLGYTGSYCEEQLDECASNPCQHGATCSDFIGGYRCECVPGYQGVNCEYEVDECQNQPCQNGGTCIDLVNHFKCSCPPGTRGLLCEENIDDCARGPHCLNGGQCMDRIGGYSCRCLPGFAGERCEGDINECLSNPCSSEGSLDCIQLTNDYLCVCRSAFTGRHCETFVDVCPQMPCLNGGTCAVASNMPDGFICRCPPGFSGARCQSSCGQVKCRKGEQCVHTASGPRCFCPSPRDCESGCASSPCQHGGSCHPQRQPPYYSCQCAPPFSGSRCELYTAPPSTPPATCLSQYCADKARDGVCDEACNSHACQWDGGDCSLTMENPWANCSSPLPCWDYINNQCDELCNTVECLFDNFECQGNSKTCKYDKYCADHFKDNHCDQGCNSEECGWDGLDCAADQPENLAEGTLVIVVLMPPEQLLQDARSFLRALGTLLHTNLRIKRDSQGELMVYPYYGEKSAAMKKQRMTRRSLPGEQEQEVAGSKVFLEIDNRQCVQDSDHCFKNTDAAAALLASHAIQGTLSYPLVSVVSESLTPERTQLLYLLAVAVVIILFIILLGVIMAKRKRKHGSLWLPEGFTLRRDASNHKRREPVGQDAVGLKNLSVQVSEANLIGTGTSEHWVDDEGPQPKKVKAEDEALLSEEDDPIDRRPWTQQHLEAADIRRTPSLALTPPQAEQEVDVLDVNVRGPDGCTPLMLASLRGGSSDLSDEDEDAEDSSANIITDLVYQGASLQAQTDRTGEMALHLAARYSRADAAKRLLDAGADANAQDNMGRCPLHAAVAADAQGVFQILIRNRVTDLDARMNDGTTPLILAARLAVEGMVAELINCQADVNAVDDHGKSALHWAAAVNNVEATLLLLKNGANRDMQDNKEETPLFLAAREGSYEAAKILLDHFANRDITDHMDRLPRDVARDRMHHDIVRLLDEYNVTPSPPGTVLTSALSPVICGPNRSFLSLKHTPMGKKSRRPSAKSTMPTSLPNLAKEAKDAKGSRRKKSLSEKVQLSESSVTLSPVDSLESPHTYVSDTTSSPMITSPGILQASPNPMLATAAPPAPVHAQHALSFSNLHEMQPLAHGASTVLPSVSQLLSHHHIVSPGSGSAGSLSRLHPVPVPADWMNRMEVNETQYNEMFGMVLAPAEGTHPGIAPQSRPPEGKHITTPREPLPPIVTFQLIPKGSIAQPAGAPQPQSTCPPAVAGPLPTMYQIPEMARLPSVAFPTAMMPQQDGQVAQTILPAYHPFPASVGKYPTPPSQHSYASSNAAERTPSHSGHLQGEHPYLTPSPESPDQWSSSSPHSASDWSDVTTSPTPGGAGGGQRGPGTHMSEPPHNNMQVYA
- MEASUREMENT DESCRIPTION: Notch2 binders on small-molecule microarrays, primary screen, biochemical, small-molecule microarray, 635 nm fluorescence, stem cell growth factors (AID 1073)
- EXPERIMENTAL CONTEXT: Notch2 binding, higher = more signal
We'd kindly ask you to apply these composite z-score classes: low end: < -0.1; middle: ≥ -0.1 and < 0.9; high end: ≥ 0.9

# COMPOUND, ASSIGNED LABEL
rows = [
    ("CC(C)C[C@@H]1NC(=O)C([C@@H](C)OCc2ccccc2)NC(=O)[C@@]23C(=O)N[C@@H](Cc4ccccc4)C2[C@H](C)[C@@]2(C)O[C@H]2C3/C=C/CC/C=C/CNC1=O (stereo partly drawn)", "middle"),
    ("C=CC[C@]1(C(=O)NCCCOC)N=C(c2ccc(OCCCO)cc2)O[C@H]1c1ccccc1", "low end"),
    ("COc1ccc(C#Cc2ccc3c(c2)[C@]2(C(=O)N3)[C@H](C(=O)Nc3nc4ccccc4s3)[C@H]3C(=O)O[C@H](c4ccccc4)[C@H](c4ccccc4)N3[C@@H]2c2ccc(OCCO)cc2)cc1", "high end"),
    ("COc1cc(OC)c(C(O)C2C=CC3C(=O)N(c4ccccc4)C(=O)C3N2Nc2ccccc2F)cc1Br (stereo not drawn)", "high end"),
    ("C=CCC(OC(C)=O)[C@@H]1[C@@H](N(Cc2cc3ccccc3o2)C(=O)Cc2ccc(OC)cc2)c2cc(OCCCO)ccc2N1C(=O)Cc1ccc(OC)cc1 (stereo partly drawn)", "low end"),
]

Sort into band: COCCOC(=O)N1C(=O)[C@@]2(c3cc(C#CC4=CCCCC4)ccc31)[C@H](c1ccccc1OCCO)N1[C@H](c3ccccc3)[C@H](c3ccccc3)OC(=O)[C@H]1[C@@H]2C(N)=O high end

Sort into band: CC(=O)c1ccc(C(O)C2C=CC3C(=O)NC(=O)C3N2Nc2ccc(Cl)cc2Cl)cc1 (stereo not drawn) high end

Sort into band: [N-]=[N+]=NCc1ccccc1C[C@]1(C(=O)O)COC(c2ccc(OCCCO)cc2)=N1 low end

Sort into band: COCCOC(=O)N1C(=O)[C@@]2(c3cc(C#CC4=CCCCC4)ccc31)[C@H](C(=O)N1CCc3cc(OC)c(OC)cc3C1)[C@H]1C(=O)O[C@H](c3ccccc3)[C@H](c3ccccc3)N1[C@@H]2c1ccc(O)cc1 high end

Sort into band: CCCC[C@H]1OB(O)C[C@H]2C1=C(COC)C[C@H]1C(=O)C=CC(=O)[C@H]12 middle

Sort into band: C=C(COC)C(=O)CC[C@@H](OC(=O)c1cccnc1)c1cccc(OCCO)c1 middle
